molecules and their reported EC50
Test Target: LXRα full length (FL) (Homo sapiens)
Construct: the full length (FL) proteins of LXRα (amino acids 1-447); NP005684
Sequence (Q13133 whole entry, the tested form may be a part): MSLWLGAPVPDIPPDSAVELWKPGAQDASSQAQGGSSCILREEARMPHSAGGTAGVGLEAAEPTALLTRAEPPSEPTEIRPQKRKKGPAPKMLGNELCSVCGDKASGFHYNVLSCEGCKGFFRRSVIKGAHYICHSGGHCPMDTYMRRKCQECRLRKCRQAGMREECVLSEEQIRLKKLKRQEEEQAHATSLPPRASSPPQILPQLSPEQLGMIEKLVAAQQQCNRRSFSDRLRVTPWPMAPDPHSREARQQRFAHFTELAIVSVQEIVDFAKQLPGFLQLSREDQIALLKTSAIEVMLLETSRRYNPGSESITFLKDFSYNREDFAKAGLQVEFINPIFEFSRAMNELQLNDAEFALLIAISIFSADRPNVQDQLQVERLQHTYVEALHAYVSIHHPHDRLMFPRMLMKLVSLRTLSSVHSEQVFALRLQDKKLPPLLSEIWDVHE
Protocol Summary: LXR Gal4 reporter transient transfection assay (M2H), Gal4α FL
Setup Conditions: HEK293 cells; read-out: M2H Gal4α FL activity range (EC50)

| Molecule | EC50 |
| --- | --- |
| Cc1cc(C)c(S(=O)(=O)N(Cc2ccc(-c3cccc(C(C)(C)C(=O)O)c3)cc2)c2ccc(C(F)(F)F)o2)c(C)c1 | 100 to 1000 nM |

Query :: Answer with the recorded EC50 of Cc1ccc2ccccc2c1S(=O)(=O)N(Cc1ccc(-c2cccc(S(=O)(=O)CC(=O)O)c2)cc1)Cc1ccc(C#N)o1 only.
Result :: 100 to 1000 nM

###

Test Target: LXRβ full length (FL) (Homo sapiens, UniProt P55055, DUP175-175)
Construct: the full length (FL) proteins of LXRα (amino acids 1-447); NP005684; NP009052; expressed in transfected cells; host or cells: HEK293
Sequence (P55055 with tags, fused parts or gaps DUP175-175): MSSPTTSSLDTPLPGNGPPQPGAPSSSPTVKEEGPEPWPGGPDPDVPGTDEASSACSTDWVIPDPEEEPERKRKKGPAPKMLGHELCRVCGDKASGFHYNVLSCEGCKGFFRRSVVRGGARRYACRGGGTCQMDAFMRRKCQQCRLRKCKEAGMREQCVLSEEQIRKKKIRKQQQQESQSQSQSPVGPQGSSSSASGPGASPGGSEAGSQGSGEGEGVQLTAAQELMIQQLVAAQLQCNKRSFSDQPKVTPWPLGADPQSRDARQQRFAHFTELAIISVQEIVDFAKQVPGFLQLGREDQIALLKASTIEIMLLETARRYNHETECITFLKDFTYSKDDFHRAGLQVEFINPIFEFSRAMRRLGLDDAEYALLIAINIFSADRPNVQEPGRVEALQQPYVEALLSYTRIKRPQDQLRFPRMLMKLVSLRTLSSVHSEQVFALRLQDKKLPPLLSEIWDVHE
Protocol Summary: LXR Gal4 reporter transient transfection assay (M2H), Gal4β FL
Assay type: cell-based
Setup Conditions: HEK293 cells; read-out: M2H Gal4β FL activity range (EC50)
Property Name: EC50

Study these solved cases before continuing.
| Compound | EC50 |
| --- | --- |
| Cc1ccc2ncccc2c1S(=O)(=O)N(Cc1ccc(-c2cccc(C(C)(C)C(=O)O)c2)cc1)Cc1ccc(C(F)(F)F)o1 [10/15] | < 100 nM |
| Cc1nn2cccnc2c1S(=O)(=O)N(Cc1ccc(-c2cccc(C(C)(C)C(=O)O)c2)cc1)Cc1ccc(C(F)(F)F)o1 [10/20] | < 100 nM |
| Cc1ccc2ccccc2c1[S+]([O-])N(Cc1ccc(-c2cccc(C(C)(C)C(=O)O)c2)cc1)Cc1ccc(C(F)(F)F)o1 (centres unmarked) [Example 27] | < 100 nM |
| CC(C)(C(=O)O)c1cccc(-c2ccc(CN(Cc3ccc(C(F)(F)F)o3)S(=N)(=O)c3cccc4ccccc34)cc2)c1 (centres unmarked) [Example 26] | < 100 nM |
| Cc1cc(C)c(S(=O)(=O)N(Cc2ccc(-c3cc(F)c(CO)c(S(=O)(=O)CC(=O)O)c3)cc2)Cc2ccc(C(F)(F)F)o2)c(C)c1 [Example 9] | 100 to 1000 nM |

Query :: Enter EC50 (test system LXRβ full length (FL) (Homo sapiens, UniProt P55055, DUP175-175)) for Cc1cc(C)c(S(=O)(=O)N(Cc2ccc(-c3cccc(S(=O)(=O)CC(=O)O)c3)cc2)Cc2ccc(F)c(C)c2)c(C)c1 [11/5]
Result :: 100 to 1000 nM

Query :: Enter measured EC50, system LXRβ full length (FL) (Homo sapiens, UniProt P55055, DUP175-175), for the compound shown: Cc1cc(C)c(S(=O)(=O)N(Cc2ccc(-c3cccc(S(=O)(=O)CC(=O)O)c3)cc2)Cc2c(F)cccc2Cl)c(C)c1 [11/6]
Result :: < 100 nM

Query :: Look up and report EC50, with LXRβ full length (FL) (Homo sapiens, UniProt P55055, DUP175-175) as system, for Cc1sc2ccccc2c1S(=O)(=O)N(Cc1ccc(-c2cccc(C(C)(C)C(=O)O)c2)cc1)Cc1ccc(C(F)(F)F)o1 [10/18]
Result :: < 100 nM

Query :: Provide EC50, tested on LXRβ full length (FL) (Homo sapiens, UniProt P55055, DUP175-175), for Cc1ccc2ccccc2c1S(=O)(=O)N(Cc1ccc(-c2cccc(C(C)(C)C(=O)O)c2)cc1)C1CCc2ccc(C(F)(F)F)cc21 (centres unmarked) [17/2] .
Result :: < 100 nM

Query :: Using LXRβ full length (FL) (Homo sapiens, UniProt P55055, DUP175-175) as the test system, report measured EC50 of Cc1ccc2ccccc2c1S(=O)(=O)N(Cc1ccc(C(F)(F)F)o1)C1COc2cc(-c3cccc(C(C)(C)C(=O)O)c3)ccc21 (centres unmarked) [10/14] .
Result :: < 100 nM

Query :: # lookup: LXRβ full length (FL) (Homo sapiens, UniProt P55055, DUP175-175) EC50, key = Cc1ccc2ccccc2c1S(=O)(=O)N(Cc1ccc(-c2cccc(S(=O)(=O)CC(=O)O)c2)cc1)Cc1cccc(C(F)(F)F)c1 [11/19]
Result :: 100 to 1000 nM

Query :: Return reported EC50 for target or system LXRβ full length (FL) (Homo sapiens, UniProt P55055, DUP175-175), item Cc1cc(C)c(S(=O)(=O)N(Cc2ccc(-c3cccc(S(=O)(=O)CC(=O)O)c3)cc2)Cc2csc(C(F)(F)F)c2)c(C)c1 [11/10] .
Result :: 1000 to 10000 nM

Query :: Print LXRβ full length (FL) (Homo sapiens, UniProt P55055, DUP175-175) EC50 for Cc1ccc2ccccc2c1S(=O)(=O)N(Cc1ccc(-c2cccc(C(C)(C)C(=O)O)c2)cc1)Cc1ccc(C(F)(F)F)o1 [Example 24] .
Result :: < 100 nM

Query :: System LXRβ full length (FL) (Homo sapiens, UniProt P55055, DUP175-175). Read-out EC50. Item Cc1cc(C)c(S(=O)(=O)N(Cc2ccc(-c3cccc(CC(=O)O)c3)cc2)Cc2ccc(C(F)(F)F)o2)c(C)c1 [Example 2] . Report value.
Result :: < 100 nM

Query :: Please indicate recorded EC50 of Cc1cc(C)c(S(=O)(=O)N(Cc2ccc(C(F)(F)F)o2)Cc2ccc(-c3cccc(C(C)(C)C(=O)O)c3)cc2Cl)c(C)c1 [10/5] measured with LXRβ full length (FL) (Homo sapiens, UniProt P55055, DUP175-175).
Result :: < 100 nM

Query :: Tell me its EC50 on LXRβ full length (FL) (Homo sapiens, UniProt P55055, DUP175-175): Cc1ccc2cccnc2c1S(=O)(=O)N(Cc1ccc(-c2cccc(S(=O)(=O)CC(=O)O)c2)cc1)Cc1ccc(C(F)(F)F)o1 [10/11]
Result :: 100 to 1000 nM

Query :: Report EC50 on LXRβ full length (FL) (Homo sapiens, UniProt P55055, DUP175-175) for this entry: Cc1cccc(C)c1S(=O)(=O)N(Cc1ccc(-c2cccc(S(=O)(=O)CC(=O)O)c2)cc1)Cc1ccc(C(F)(F)F)o1 [14/2]
Result :: 100 to 1000 nM

Query :: Please respond with reported EC50 (system LXRβ full length (FL) (Homo sapiens, UniProt P55055, DUP175-175)) for Cc1ccc2cccnc2c1S(=O)(=O)N(Cc1ccc(-c2cccc(C(C)(C)C(=O)NS(C)(=O)=O)c2)cc1)Cc1ccc(C(F)(F)F)o1 [Example 29] .
Result :: 100 to 1000 nM

Query :: Report its EC50 with LXRβ full length (FL) (Homo sapiens, UniProt P55055, DUP175-175) as the test system: Cc1cc(C)c(S(=O)(=O)N(Cc2ccc(-c3cccc(CC(=O)O)c3)cc2)C(C)c2ccc(C(F)(F)F)o2)c(C)c1 (centres unmarked) [2/2]
Result :: < 100 nM

###

Test Target: GST-LXRβ ligand-binding domain (Homo sapiens, UniProt P55055, DUP175-175)
Construct: amino acids 156-461; NP009052; made in house; host or cells: E. coli
Protocol Summary: TR-FRETβ activity assay (LXRβ-LBD / NCoA3 coactivator peptide, prestimulated with 24(S)-25-epoxycholesterol)
Format: biochemical
Design: key: ag=agonist; ia=inverse agonist
Setup Conditions: agonist or inverse agonist
Property Name: behavior in FRET assay

| Compound | behavior in FRET assay |
| --- | --- |
| Cc1cc(C)c(S(=O)(=O)N(Cc2ccc(-c3cccc(S(=O)(=O)C(C)C(=O)O)c3)cc2)Cc2ccc(C(F)(F)F)o2)c(C)c1 (stereo not shown) | ia |
| Cc1cc(C)c(S(=O)(=O)N(Cc2ccc(N3CCCC(C(C)(C)C(=O)O)C3)cc2)Cc2ccc(C(F)(F)F)o2)c(C)c1 (stereo not shown) | ia |
| Cc1cc(C(F)(F)F)oc1CN(Cc1ccc(-c2cccc(C(C)(C)C(=O)O)c2)cc1)S(=O)(=O)c1c(C)ccc2ccccc12 | ia |
| Cc1cc(C)c(S(=O)(=O)N(Cc2ccc(-c3cccc(CC(=O)O)c3)cc2)Cc2cccc(Br)c2)c(C)c1 | ia |
| Cc1cc(C)c(S(=O)(=O)N(Cc2ccc(N3CCCN(CC(=O)O)C3=O)cc2)Cc2ccc(C(F)(F)F)o2)c(C)c1 | ia |
| Cc1ccc2cccnc2c1S(=O)(=O)N(Cc1ccc(-c2cccc(S(=O)(=O)CC(=O)O)c2)cc1)Cc1ccc(C(F)(F)F)o1 | ag |

The record that follows has no behavior in FRET assay shown yet.
Query :: Return behavior in FRET assay (reported value) for this compound: COc1ccc2cccnc2c1S(=O)(=O)N(Cc1ccc(-c2cccc(C(C)(C)C(=O)O)c2)cc1)Cc1ccc(C(F)(F)F)o1
Result :: ag

These measurements were taken from patent US20200115357A1.
